All figures here come from ChEMBL document CHEMBL3862016.

Assay: Metabolic stability in mouse liver microsomes assessed as compound remaining at 1 uM measured after 30 mins in presence of NADPH by LC-MS/MS analysis
Type: ADME
Details: read-out: Stability
recordedEndpoint: remaining at 0.5 h, 1 µM (%)
Answer with a number only, understood to be in %.

**Q:** Using the record for CC1(C)C(=O)N(c2ccc(C#N)c(C(F)(F)F)c2)C(=S)N1c1ccc(C(=O)NCCCCCC(=O)NO)c(F)c1 , report its remaining at 0.5 h, 1 µM.
**A:** 21.9

* * *

Target: Histone deacetylase 2 (Homo sapiens, UniProt Q92769)
Sequence (Q92769 whole entry): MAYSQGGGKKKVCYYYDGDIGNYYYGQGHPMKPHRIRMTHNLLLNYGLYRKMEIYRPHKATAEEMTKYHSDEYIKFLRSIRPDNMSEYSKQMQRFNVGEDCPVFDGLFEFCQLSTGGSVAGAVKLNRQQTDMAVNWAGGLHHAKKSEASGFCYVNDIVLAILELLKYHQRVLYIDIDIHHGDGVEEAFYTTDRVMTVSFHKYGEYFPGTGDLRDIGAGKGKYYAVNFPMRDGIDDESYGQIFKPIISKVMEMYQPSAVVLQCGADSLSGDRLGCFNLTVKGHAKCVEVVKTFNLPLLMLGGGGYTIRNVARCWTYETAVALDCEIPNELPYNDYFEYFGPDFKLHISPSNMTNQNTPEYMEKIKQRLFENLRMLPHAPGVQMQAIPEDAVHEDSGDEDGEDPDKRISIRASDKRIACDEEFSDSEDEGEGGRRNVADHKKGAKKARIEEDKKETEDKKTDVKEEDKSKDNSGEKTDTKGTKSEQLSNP
recordedEndpoint: IC50 (µM)
Answer with a number only, understood to be in µM.

Solved cases below.
>>> df
                            substancesmiles  recordedendpoint  endpointresult
0  CC1(C)C(=O)N(c2ccc(C#N)c(C(F)(F)F)c2)C(=S)N1c1ccc(C(=O)OCCCCCC(=O)NO)c(F)c1              IC50             1.1
1  CC1(C)C(=O)N(c2ccc(C#N)c(C(F)(F)F)c2)C(=S)N1c1ccc(C(=O)NCCCCCC(=O)NO)c(F)c1              IC50            2.25
2  CC1(C)C(=O)N(c2ccc(C#N)c(C(F)(F)F)c2)C(=S)N1c1ccc(C(=O)Nc2ccccc2N)c(F)c1              IC50            14.1

**Q:** Form field: IC50 recorded for CC1(C)C(=O)N(c2ccc(C#N)c(C(F)(F)F)c2)C(=S)N1c1ccc(C(=O)NCCOCCC(=O)NO)c(F)c1 with Histone deacetylase 2 (Homo sapiens, UniProt Q92769) (enter value)
**A:** 86.5
